System: c-Src
PROCEDURE_SUMMARY: phosphorylation enrichment, bacterial display (enrichment ratio); higher = better substrate or ligand; peptides without Tyr show the background
Response key: rule met means phosphorylation enrichment >= 0.7; rule not met means phosphorylation enrichment < 0.7.

Worked cases, answers included:
FQVRRYDCDCD [CRYGS_Y21_G18V] | rule not met
ANNEYYFRVCA | rule not met
RSSNTYTLMDV [ALCAM_Y298_T301M] | rule met

Lookup: In plain terms: is recorded phosphorylation enrichment at least 0.7 for FDAHNYHPLPV [OAT_Y55_G51D_YF] ?
Found: rule not met

Lookup: Entry QKDIFYGLRSL [IGSF10_Y126_T124I] : is its phosphorylation enrichment no less than 0.7?
Found: rule met

Lookup: hey, is phosphorylation enrichment for this one >= 0.7? FIIFIYAMKKK [SLCO1B1_Y645_L643F_YF]
Found: rule met

Lookup: Is phosphorylation enrichment for LQTFRYHGHSM [PDHA1_Y289_YF] at or above 0.7?
Found: rule met

====

TARGET_ENTITY: SHP2-C SH2;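 also: peptide library displayed on the E. coli surface as eCPX fusions, selected cells deep-sequenced, score is each peptide's frequency after selection divided by its frequency in the input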
PROCEDURE_SUMMARY: SH2 binding enrichment of the phosphorylated peptide, bacterial display (enrichment ratio); higher = better substrate or ligand; peptides without Tyr show the background
Values of SH2 binding enrichment greater than or equal to 0.7 map to yes (1); values below map to no (0).

Consider the worked cases shown below.
YRQNGYIPGSN [PCDHGA1_Y895_V894G] | yes (1)
RGVVMYTSKDR [ZG16B_Y136_M133V] | yes (1)
AIIGIYILRDN [CDH23_Y2949_D2954N] | yes (1)

Lookup: Could you verify whether the entry ATKNDYWAMLA [WWOX_Y287_P282A] shows SH2 binding enrichment of no less than 0.7?
Found: yes (1)

Lookup: Determine whether this sequence has SH2 binding enrichment no lower than 0.7: YSKDIYKRVTG [PANK2_Y405_N404I]
Found: no (0)

Lookup: Determine whether this sequence has SH2 binding enrichment no lower than 0.7: DGMADCSDPSY [CDC5L_Y459_Y459C]
Found: no (0)

Lookup: Is reported SH2 binding enrichment greater than or equal to 0.7 here: MECLPYGSLRD [JAK2_Y934_Y931C]
Found: no (0)

Lookup: Check if SH2 binding enrichment >= 0.7 (inclusive). Item: FSKQIYKGMVA [PCDH15_Y931_R929Q]
Found: no (0)

Lookup: Would you say RAILLYEFVGK [NATD1_Y45_V42I_YF] shows SH2 binding enrichment at minimum 0.7?
Found: yes (1)

Lookup: Hi team, for FKTPTYPFLLP [PLD2_Y578_YF] , is the recorded SH2 binding enrichment at or above 0.7?
Found: yes (1)

Lookup: Check the entry KLFRVYCDMNT [FGB_Y269_P265L_YF] : does SH2 binding enrichment equal or exceed 0.7?
Found: no (0)

====

System: Fer (mouse)
PROCEDURE_SUMMARY: phosphorylation enrichment, bacterial display (enrichment ratio); higher = better substrate or ligand; peptides without Tyr show the background
Would you mind labelling by phosphorylation enrichment? At or over 0.5 is 1, under is -1.

Solved entries (count: 5):
AVLSLCASGRT [ACTA2_Y145_Y145C] | 1
PPGRSYSPFDF [TNS1_Y793_YF] | 1
EDSEYYRAFEE [CASQ2_Y179_K180R] | 1
RSSGGYEPRGR [FUS_Y239] | -1
FLENFYDLEKD [MMP3_Y42_K45E_YF] | -1

Query sequence follows.
Lookup: State whether the measured phosphorylation enrichment reaches 0.5, counting equality as reaching it, for LSIQCYLRALD [HMGCS2_Y262]
Found: 1

====

Test system: c-Abl (mouse)
PROCEDURE_SUMMARY: phosphorylation enrichment, bacterial display (enrichment ratio); higher = better substrate or ligand; peptides without Tyr show the background
Returns one of 1 or 0; 1 when phosphorylation enrichment is >= 0.8.

Field: example entries. Status: answers known.
PQIVNYSPDCI [LDHB_Y128_K127N] | 0
GMSQAYSFSQR [DES_Y5_S7F] | 0
NWGSPYKSDGC [ZNF347_Y261_N264D] | 0

Lookup: API: above_or_equal(metric=phosphorylation enrichment, cutoff=0.8) for item NTILLYHIMAW [GPR143_Y157_S152N]
Found: 1

Lookup: Decide: phosphorylation enrichment of FRIDHYLGKEM [G6PD_Y202_YF] >= 0.8?
Found: 0

Lookup: Given HSVLQYVGGVM [FGGY_Y136] , state whether its phosphorylation enrichment is at least 0.8.
Found: 1

Lookup: Answer whether phosphorylation enrichment of KKKKQYKDKFL [CASK_Y708_YF] is greater than or equal to 0.8.
Found: 0

Lookup: Kindly determine if phosphorylation enrichment recorded for LADKPYTFEFF [FXN_Y118_D122Y_YF] is above or exactly 0.8.
Found: 1

Lookup: Test whether the sequence EAESWYQTKYE [KRT75_Y342] records phosphorylation enrichment of 0.8 or higher.
Found: 0

Lookup: Check the entry KFDLMYAKCAF [TUBA1A_Y399_R402C] : does phosphorylation enrichment equal or exceed 0.8?
Found: 1

====

TARGET_ENTITY: MERTK (UniProt Q12866)
Sequence (Q12866 whole entry, looked up): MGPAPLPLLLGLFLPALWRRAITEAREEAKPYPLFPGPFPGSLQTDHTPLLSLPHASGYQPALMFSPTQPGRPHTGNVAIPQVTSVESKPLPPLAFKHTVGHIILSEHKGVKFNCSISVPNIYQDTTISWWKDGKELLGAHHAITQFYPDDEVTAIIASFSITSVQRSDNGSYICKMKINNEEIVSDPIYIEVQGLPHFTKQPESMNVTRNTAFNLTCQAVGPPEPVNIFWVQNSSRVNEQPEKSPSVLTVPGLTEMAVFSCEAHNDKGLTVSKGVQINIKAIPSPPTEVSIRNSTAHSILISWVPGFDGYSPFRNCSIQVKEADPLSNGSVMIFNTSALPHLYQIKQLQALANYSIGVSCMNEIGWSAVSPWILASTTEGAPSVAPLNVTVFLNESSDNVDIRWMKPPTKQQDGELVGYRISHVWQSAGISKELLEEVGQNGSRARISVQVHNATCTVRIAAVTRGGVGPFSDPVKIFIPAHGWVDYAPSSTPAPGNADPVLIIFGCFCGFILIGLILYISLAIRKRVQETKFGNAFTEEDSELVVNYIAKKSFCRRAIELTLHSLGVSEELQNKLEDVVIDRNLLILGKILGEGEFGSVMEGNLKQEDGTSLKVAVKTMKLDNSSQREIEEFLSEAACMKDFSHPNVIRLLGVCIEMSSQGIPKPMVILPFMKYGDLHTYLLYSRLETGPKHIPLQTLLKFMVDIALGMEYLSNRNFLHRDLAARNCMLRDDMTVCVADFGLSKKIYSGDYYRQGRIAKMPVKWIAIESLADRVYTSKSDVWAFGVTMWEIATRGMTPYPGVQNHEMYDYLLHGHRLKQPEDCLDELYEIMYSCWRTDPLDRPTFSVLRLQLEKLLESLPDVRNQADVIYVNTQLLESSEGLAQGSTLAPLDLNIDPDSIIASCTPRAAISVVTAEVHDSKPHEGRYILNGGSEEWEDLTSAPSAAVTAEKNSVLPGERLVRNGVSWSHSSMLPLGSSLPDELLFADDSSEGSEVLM
PROCEDURE_SUMMARY: phosphorylation enrichment, bacterial display (enrichment ratio); higher = better substrate or ligand; peptides without Tyr show the background
Each entry gets condition not met if its phosphorylation enrichment stays under 0.6, and condition met if its phosphorylation enrichment is 0.6 or above.

Completed entries (count: 5):
YFVVEYRNQKP [MUC17_Y4332_D4334N] | condition met
LLANAYIYVVQ [L1CAM_Y418] | condition not met
ESPGLCGFLNV [BCR_Y910_Y910C] | condition not met
YAKSVYWDNTL [NUP107_Y296_E298D] | condition not met
MKSIKYMDKEV [CCDC60_Y41_I46V] | condition not met

Lookup: Dear colleague, could you confirm whether LENSTYQYICV [CRB1_Y760_R764C] has phosphorylation enrichment at or above 0.6?
Found: condition met

Lookup: Item FLENFYDLEKD [MMP3_Y42_K45E_YF] with phosphorylation enrichment of 0.6 or above?
Found: condition not met

Lookup: Does the reported phosphorylation enrichment for RCYVYYYSYLL [PTEN_Y177_R173C] fall at or above the 0.6 mark?
Found: condition met

Lookup: Item DLAHKYHGGGG [HBB_Y146_A141D] with phosphorylation enrichment of 0.6 or above?
Found: condition not met

Lookup: Decide: is the reported value of phosphorylation enrichment for CTTIHYIFMCN [TP53_Y234_N235I_YF] equal to or greater than 0.6?
Found: condition not met

Lookup: # check: phosphorylation enrichment of DMQTLYVNTAA [SMCHD1_Y403] is greater than or equal to 0.6
Found: condition not met

Lookup: Tell me whether phosphorylation enrichment is at least 0.6 here: REGAKYVSHGT [ASS1_Y113_A118T]
Found: condition met

====

TARGET_ENTITY: EPHB2 (UniProt P29323)
Sequence (P29323 whole entry, looked up): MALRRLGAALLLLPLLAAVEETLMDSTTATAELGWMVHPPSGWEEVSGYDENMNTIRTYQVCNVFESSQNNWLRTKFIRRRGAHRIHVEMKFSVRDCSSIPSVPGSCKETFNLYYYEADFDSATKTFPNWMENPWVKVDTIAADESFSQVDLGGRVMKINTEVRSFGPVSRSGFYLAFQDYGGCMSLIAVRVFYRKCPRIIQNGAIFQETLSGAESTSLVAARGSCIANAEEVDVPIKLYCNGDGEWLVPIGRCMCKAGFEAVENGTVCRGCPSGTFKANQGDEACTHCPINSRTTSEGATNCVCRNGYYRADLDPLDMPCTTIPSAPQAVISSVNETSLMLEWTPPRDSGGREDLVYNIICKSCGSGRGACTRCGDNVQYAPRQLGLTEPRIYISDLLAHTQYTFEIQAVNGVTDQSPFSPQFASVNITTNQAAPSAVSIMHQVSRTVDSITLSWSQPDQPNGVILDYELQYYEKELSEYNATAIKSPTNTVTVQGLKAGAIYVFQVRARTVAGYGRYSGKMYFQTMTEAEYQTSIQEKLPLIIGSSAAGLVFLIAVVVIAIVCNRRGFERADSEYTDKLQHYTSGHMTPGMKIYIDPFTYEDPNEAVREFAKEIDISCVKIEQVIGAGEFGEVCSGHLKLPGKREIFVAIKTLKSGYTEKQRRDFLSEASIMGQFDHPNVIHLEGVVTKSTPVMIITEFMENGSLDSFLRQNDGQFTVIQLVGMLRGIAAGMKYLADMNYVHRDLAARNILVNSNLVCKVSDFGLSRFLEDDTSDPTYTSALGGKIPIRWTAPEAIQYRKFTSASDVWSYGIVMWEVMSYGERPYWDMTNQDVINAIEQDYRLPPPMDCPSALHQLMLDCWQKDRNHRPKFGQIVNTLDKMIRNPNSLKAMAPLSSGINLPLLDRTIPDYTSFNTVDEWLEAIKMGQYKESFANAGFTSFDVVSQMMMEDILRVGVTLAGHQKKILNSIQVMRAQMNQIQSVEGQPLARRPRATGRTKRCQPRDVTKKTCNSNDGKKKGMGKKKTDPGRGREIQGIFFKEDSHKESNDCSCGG
PROCEDURE_SUMMARY: phosphorylation enrichment, bacterial display (enrichment ratio); higher = better substrate or ligand; peptides without Tyr show the background
READOUT_NAME: phosphorylation enrichment
Respond numerically, and do not add a unit to the figure.

The following sequences have reported results that may help.
LTERGYSFTTT [ACTB_Y198] | 0.492
FFHCTYKKRMI [CLEC12A_Y242_YF] | 0.612
SLLKDYSPQLQ [OTC_Y345_T343K] | 0.525

Lookup: Given the entry DWRQEYVLNEP [TGM1_Y267_S272P] , report its measured phosphorylation enrichment.
Found: 0.426

Lookup: # phosphorylation enrichment lookup, item PQAVTYATVKH [LILRB4_Y360_K362T]
Found: 0.615

Lookup: Need phosphorylation enrichment of DSGKLYALDVL [INO80_Y1104] , thanks.
Found: 0.705

Lookup: Please report the recorded phosphorylation enrichment for EVVGRYSVHYA [MLH1_Y183_N187Y] .
Found: 0.5

Lookup: // phosphorylation enrichment lookup, key: SNKLFYQLEQE [PDPR_Y110_YF]
Found: 0.738

Lookup: // returns reported phosphorylation enrichment for input VVIMLYGVDSR [PKD1_Y3143_G3139V]
Found: 0.72

====

TARGET_ENTITY: Jak2 (UniProt O60674)
Sequence (O60674 whole entry, looked up): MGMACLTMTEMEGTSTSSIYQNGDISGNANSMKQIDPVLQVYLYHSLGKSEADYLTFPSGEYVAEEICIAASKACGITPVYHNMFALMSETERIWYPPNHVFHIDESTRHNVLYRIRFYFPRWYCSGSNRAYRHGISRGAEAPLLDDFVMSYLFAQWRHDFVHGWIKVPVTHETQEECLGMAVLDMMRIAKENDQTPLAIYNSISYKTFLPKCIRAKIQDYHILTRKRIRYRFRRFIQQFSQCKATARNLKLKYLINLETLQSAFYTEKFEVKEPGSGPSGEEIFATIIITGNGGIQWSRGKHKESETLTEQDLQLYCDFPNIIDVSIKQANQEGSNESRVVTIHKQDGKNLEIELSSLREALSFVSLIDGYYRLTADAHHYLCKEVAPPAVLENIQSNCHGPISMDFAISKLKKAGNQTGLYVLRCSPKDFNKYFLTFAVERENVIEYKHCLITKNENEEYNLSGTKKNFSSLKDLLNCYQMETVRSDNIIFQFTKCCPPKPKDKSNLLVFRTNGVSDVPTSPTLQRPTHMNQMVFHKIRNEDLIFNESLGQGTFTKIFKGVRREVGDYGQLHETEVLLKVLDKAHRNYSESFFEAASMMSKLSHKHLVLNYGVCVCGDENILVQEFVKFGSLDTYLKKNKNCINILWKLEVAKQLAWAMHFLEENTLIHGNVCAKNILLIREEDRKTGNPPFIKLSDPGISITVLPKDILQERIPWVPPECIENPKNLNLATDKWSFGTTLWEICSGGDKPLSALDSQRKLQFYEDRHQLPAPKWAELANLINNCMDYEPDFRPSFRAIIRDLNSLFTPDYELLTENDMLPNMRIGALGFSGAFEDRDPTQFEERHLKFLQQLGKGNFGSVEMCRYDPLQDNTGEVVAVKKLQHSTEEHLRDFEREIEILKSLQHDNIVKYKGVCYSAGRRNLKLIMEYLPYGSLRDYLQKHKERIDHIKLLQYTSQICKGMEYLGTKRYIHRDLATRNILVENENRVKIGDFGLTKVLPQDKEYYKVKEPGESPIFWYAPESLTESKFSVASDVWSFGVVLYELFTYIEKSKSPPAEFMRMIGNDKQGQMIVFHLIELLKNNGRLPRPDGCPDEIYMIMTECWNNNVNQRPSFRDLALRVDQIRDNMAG
PROCEDURE_SUMMARY: phosphorylation enrichment, bacterial display (enrichment ratio); higher = better substrate or ligand; peptides without Tyr show the background
Classification scheme (phosphorylation enrichment): lowest = under 0.7, middle = from 0.7 up to 1, highest = 1 and over

DSSIRYLQEIF [FGG_Y135_YF] | middle

Lookup: Lab note: sort ISDDKYGRIRL [ARCN1_Y310] into the matching phosphorylation enrichment band.
Found: lowest

Lookup: Which bin should I file SISLKYEGRVF [ABL1_Y167_R166K_YF] under?
Found: highest

Lookup: Band assignment needed for KDHPDYKYQRR [SOX10_Y171_P175R] please.
Found: lowest

Lookup: For the record CDIPRYIVSQL [MAST2_Y461] , report the class its phosphorylation enrichment corresponds to.
Found: highest

Lookup: Which class does YEEDSYVTRSQ [RET_Y905_K907T] fall in?
Found: highest

Lookup: Record CTTIHYNYRCN [TP53_Y234_M237R] — which class?
Found: middle

Lookup: Class (by measured phosphorylation enrichment) for DRLASYLEKVR [KRT13_Y118]
Found: lowest

Lookup: Exercise: read the entry TVSTGYTQPQP [SARG_Y259_R258G] and state which class it falls under.
Found: lowest

Lookup: State the band of CPTIHYNYMCN [TP53_Y234_T230P]
Found: middle

Lookup: For this sequence, which bin applies? MAYDRYVAICS [OR8D4_Y123_C120Y]
Found: highest

Lookup: Hi, small favor: classify RRAKGYPINLF [ITGB2_Y125_D128N_YF] by its phosphorylation enrichment when you get a moment.
Found: lowest

Lookup: Classify this sequence: PMDTFYDSTRG [DYNC2H1_Y2231_YF]
Found: middle

Lookup: Just checking, what class would you give RESFKYFPSSL [CXXC1_Y218_YF] here?
Found: lowest

Lookup: Bin? HPHECYAKVFD [ALB_Y394_D389H]
Found: highest

This collection of values is drawn from the supplement of paper PMC10065799.
